Tested on: Trypanosoma cruzi SN3 epimastigote forms
Assay: Epimastigote assay, T. cruzi SN3
Assay type: cell-based
Conditions: Trypanosoma cruzi, read-out: Activity IC50 Epimastigote forms
observed.property: IC50 (µM)
Give bare numbers, in µM.

The examples below pair each entry with its known result.
- compound: "c1ccc2c(NCCCn3ccnc3)ncnc2c1"
  IC50 [µM]: 9.4
- compound: "c1ccc2c(NCCc3cn4ccccc4n3)nnc(NCCc3cn4ccccc4n3)c2c1"
  IC50 [µM]: 20.1
- compound: "c1ccc2c(NCCc3c[nH]cn3)nncc2c1"
  IC50 [µM]: 16.5
- compound: "c1ccc2c(NCCc3c[nH]cn3)ncnc2c1"
  IC50 [µM]: 25.9
- compound: "Clc1ccc(NCCCn2ccnc2)nn1"
  IC50 [µM]: 11.8
- compound: "c1ccc2[nH]c(CCNc3nnc(NCCc4nc5ccccc5[nH]4)c4ccccc34)nc2c1"
  IC50 [µM]: 33.5

# batch size: 2; output IC50 per entry
1. c1cnc(NCCCCn2ccnc2)cn1
2. O=C(Cn1ccnc1[N+](=O)[O-])NCc1ccccc1 [BNZ, benznidazole, reference compound]

Result string:
17.9
15.8
